Target: FER (Homo sapiens, UniProt P16591)
Construct: endogenous in cells
Sequence (P16591 whole entry): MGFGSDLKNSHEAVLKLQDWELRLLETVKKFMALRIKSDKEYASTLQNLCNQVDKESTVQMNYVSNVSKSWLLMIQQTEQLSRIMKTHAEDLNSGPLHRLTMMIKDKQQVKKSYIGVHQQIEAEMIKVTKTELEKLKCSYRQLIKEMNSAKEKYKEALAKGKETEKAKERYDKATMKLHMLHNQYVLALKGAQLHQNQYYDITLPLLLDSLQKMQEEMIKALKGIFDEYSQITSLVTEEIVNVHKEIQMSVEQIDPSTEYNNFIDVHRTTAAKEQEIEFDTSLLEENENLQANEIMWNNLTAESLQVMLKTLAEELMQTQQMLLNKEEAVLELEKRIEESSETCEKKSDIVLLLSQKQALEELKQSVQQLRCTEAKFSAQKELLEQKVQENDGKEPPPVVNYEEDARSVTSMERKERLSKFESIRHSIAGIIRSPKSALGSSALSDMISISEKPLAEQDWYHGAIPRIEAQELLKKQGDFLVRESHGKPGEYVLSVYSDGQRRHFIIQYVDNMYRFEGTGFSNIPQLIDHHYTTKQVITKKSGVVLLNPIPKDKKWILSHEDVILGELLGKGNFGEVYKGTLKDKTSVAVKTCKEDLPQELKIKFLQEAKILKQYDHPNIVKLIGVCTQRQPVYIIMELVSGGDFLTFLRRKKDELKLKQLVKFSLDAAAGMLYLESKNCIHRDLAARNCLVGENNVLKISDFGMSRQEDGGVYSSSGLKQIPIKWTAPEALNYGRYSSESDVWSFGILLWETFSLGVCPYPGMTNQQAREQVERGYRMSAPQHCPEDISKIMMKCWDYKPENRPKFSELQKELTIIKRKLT
Experiment: Kinobeads competition binding: FER
Details: target FER
Excerpt: Supplement 41589_2023_1459_MOESM4_ESM.xlsx, sheet "CATDS matrix" | column: FER
Listing of recorded CATDS by entry.
Give the value as a plain number.

Examples with answers:
Nc1ncnc2[nH]c(-c3ccccc3)nc12 [AH5015_KCGS] ... 0.03222
CN(C)C/C=C/C(=O)Nc1cc2c(Nc3ccc(F)c(Cl)c3)ncnc2cc1O[C@H]1CCOC1 [Afatinib] ... 0
N#CC1(c2ccc(NC(=O)c3cccnc3NCc3ccncc3)cc2)CCCC1 [Apatinib] ... 0
CCc1cc2c(cc1N1CCC(N3CCOCC3)CC1)C(C)(C)c1[nH]c3cc(C#N)ccc3c1C2=O [Alectinib] ... 0

Now take the following compound into account.
Lookup result for CCN1CCN(Cc2ccc(Nc3ncc(F)c(-c4cc(F)c5nc(C)n(C(C)C)c5c4)n3)nc2)CC1 [Abemaciclib] ; measured CATDS: 0

src = paper PMC11062922
